Where do these numbers come from? They come from patent US20250368745A1.

- target_system: T1, cynomolgus IL-18BP (cynomolgus monkey)
- T1 construct: Generated in-house; also called cyIL-18BP; cyno IL-18BP
- T1 chain: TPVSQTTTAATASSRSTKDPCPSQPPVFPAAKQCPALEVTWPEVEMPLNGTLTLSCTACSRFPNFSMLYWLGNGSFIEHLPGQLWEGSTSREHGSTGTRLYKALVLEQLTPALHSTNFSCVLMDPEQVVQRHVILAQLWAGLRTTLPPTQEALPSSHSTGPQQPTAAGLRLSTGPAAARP
- test_description: BLI (Octet), mAb on AHC biosensor
Strictly below 0.08 nM in Kd: Fulfilled. Otherwise: Not fulfilled.

## Input I'd appreciate it if you could check whether SA320a (antibody, human IgG1, V domains shown, humanized; human IgG1 (suffix a), kappa) VH: QVQLQESGPGLVKPSQTLSLTCTVSGYSITQDYNAHWIRQPPGKGLEWIGYIHYSGQTYYNPSLKSRVTISRDTSKNQFSLKLSSVTAADTAVYYCARNFGSIYVNYFDYWGQGTLVTVSS VL: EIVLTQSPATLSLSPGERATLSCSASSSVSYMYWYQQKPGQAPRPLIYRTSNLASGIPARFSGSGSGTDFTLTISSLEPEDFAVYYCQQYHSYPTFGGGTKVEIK has Kd smaller than 0.08 nM.
## Output Fulfilled

## Input I'd appreciate it if you could check whether SA301a (antibody, human IgG1, V domains shown, humanized; human IgG1 (suffix a), kappa; also called humanized SA44a) VH: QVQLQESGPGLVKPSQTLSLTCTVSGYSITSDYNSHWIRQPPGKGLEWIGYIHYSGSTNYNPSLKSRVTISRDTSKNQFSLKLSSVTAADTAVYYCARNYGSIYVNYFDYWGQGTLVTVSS VL: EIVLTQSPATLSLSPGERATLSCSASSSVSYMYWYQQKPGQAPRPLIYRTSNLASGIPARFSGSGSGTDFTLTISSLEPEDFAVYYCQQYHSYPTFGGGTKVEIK has Kd smaller than 0.08 nM.
## Output Not fulfilled

## Input I'd appreciate it if you could check whether SA302a (antibody, human IgG1, V domains shown, humanized; human IgG1 (suffix a), kappa) VH: QVQLQESGPGLVKPSQTLSLTCTVSGYSITSDYNAHWIRQPPGKGLEWIGYIHYSGSTNYNPSLKSRVTISRDTSKNQFSLKLSSVTAADTAVYYCARNYGSIYVNYFDYWGQGTLVTVSS VL: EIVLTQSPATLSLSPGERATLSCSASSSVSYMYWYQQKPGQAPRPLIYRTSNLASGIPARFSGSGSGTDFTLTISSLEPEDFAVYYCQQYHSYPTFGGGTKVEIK has Kd smaller than 0.08 nM.
## Output Not fulfilled

## Input I'd appreciate it if you could check whether SA322a (antibody, human IgG1, V domains shown, humanized; human IgG1 (suffix a), kappa) VH: QVQLQESGPGLVKPSQTLSLTCTVSGYSITQDYNAHWIRQPPGKGLEWIGYIHYSGQTNYNPSLKSRVTISRDTSKNQFSLKLSSVTAADTAVYYCARNYGSIYVNYFDYWGQGTLVTVSS VL: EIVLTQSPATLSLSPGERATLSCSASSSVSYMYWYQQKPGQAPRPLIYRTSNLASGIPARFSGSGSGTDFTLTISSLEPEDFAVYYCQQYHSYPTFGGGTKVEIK has Kd smaller than 0.08 nM.
## Output Fulfilled

## Input I'd appreciate it if you could check whether SA309a (antibody, human IgG1, V domains shown, humanized; human IgG1 (suffix a), kappa) VH: QVQLQESGPGLVKPSQTLSLTCTVSGYSITSDYNAHWIRQPPGKGLEWIGYIHYSGQTNYNPSLKSRVTISRDTSKNQFSLKLSSVTAADTAVYYCARNYGSIYVNYFDYWGQGTLVTVSS VL: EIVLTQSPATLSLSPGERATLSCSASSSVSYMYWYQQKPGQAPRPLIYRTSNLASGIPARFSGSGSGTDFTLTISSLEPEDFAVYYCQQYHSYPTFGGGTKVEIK has Kd smaller than 0.08 nM.
## Output Fulfilled

## Input I'd appreciate it if you could check whether SA44a (antibody, human IgG1, V domains shown, murine variable regions on human IgG1 kappa constant regions) VH: DVQLQESGPDLVKPSQSLSLTCTVTGYSITSDYNCHWIRQFPGNKLEWMGYIHYSGSTNYNPSLKSRISITRDTSKNQFFLQLNSVTAEDTATYYCARNYGSIYVNYFDYWGQGTTLTVSS VL: QIVLTQSPAIMSASPGEKVTISCSASSSVSYMYWYQQEPGSSPKPWIYRTSNLASGVPPRFSGSGSGTSYSLTISSMEAEDAATYFCQQYHSYPTFGGGTKLEIK has Kd smaller than 0.08 nM.
## Output Not fulfilled

## Input I'd appreciate it if you could check whether SA338a (antibody, human IgG1, V domains shown, humanized; human IgG1 (suffix a), kappa) VH: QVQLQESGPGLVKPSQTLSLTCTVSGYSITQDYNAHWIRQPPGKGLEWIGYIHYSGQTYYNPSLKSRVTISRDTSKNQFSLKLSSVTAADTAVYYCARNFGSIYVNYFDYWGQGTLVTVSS VL: EIVLTQSPATLSLSPGERATLSCSASSSVSYMYWYQQKPGQAPRPLIYRTSNLASGIPARFSGSGSGTDFTLTISSLEPEDFAVYYCQLYHSYPTFGGGTKVEIK has Kd smaller than 0.08 nM.
## Output Fulfilled

## Input I'd appreciate it if you could check whether SA310a (antibody, human IgG1, V domains shown, humanized; human IgG1 (suffix a), kappa) VH: QVQLQESGPGLVKPSQTLSLTCTVSGYSITSDYNAHWIRQPPGKGLEWIGYIHYSGSTMYNPSLKSRVTISRDTSKNQFSLKLSSVTAADTAVYYCARNYGSIYVNYFDYWGQGTLVTVSS VL: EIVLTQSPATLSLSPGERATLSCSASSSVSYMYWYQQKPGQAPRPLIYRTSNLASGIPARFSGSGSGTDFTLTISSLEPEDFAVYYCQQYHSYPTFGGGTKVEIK has Kd smaller than 0.08 nM.
## Output Fulfilled

## Input I'd appreciate it if you could check whether SA337a (antibody, human IgG1, V domains shown, humanized; human IgG1 (suffix a), kappa) VH: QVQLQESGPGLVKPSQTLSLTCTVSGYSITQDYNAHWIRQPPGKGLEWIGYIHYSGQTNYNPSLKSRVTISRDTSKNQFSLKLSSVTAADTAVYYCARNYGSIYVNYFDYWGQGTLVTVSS VL: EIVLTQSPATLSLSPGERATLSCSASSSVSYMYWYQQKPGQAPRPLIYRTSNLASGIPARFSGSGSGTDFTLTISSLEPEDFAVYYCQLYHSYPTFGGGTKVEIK has Kd smaller than 0.08 nM.
## Output Fulfilled

## Input I'd appreciate it if you could check whether SA303a (antibody, human IgG1, V domains shown, humanized; human IgG1 (suffix a), kappa) VH: QVQLQESGPGLVKPSQTLSLTCTVSGYSITSDYNAHWIRQPPGKGLEWIGYIHYSGSTNYNPSLKSRVTISRDTSKNQFSLKLSSVTAADTAVYYCARNFGSIYVNYFDYWGQGTLVTVSS VL: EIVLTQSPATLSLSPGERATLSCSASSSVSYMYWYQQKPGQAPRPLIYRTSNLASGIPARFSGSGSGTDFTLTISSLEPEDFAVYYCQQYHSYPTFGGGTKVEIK has Kd smaller than 0.08 nM.
## Output Fulfilled

## Input I'd appreciate it if you could check whether SA340a (antibody, human IgG1, V domains shown, humanized; human IgG1 (suffix a), kappa) VH: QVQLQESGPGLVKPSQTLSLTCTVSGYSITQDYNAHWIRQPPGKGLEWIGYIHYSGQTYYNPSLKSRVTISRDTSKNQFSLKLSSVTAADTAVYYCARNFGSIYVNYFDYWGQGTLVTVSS VL: EIVLTQSPATLSLSPGERATLSCSASSSVSYMYWYQQKPGQAPRPLIYRTSNLASGIPARFSGSGSGTDFTLTISSLEPEDFAVYYCQQYHSYPKFGGGTKVEIK has Kd smaller than 0.08 nM.
## Output Fulfilled
